# key: entry, value: IC50
target: HLA-A*02:06
protocolDescription: IEDB peptide-MHC binding, cellular MHC/competitive/fluorescence; bounds were set here for any values at or beyond the usual limits of such assays
conditionNotes: source organism: Influenza A virus
propertyName: IC50

- NVKDYSIV: ≥ 70 µM
- RAEIIRMMEGA: ≥ 70 µM
- ATAILRKA: ≥ 70 µM
- ALSYSAGA: ≥ 70 µM
- PAEMLASI: ≥ 70 µM
- YLEKANKI: ≥ 70 µM
- FLKVPAQNA: ≥ 70 µM
- TLNTMTKDA: ≥ 70 µM
- NTSQRGIL: ≥ 70 µM
- PACVYGPA: ≥ 70 µM
- RAVKLYRKL: ≥ 70 µM
- PLIRHENRMVL: ≥ 70 µM
- ATALANTI: ≥ 70 µM
- ALSYSTGA: ≥ 70 µM
- GLQSSDDFA: ≥ 70 µM
- RTEIIRMMESA: ≥ 70 µM
- PACVYGLA: ≥ 70 µM
- ATKRIRMA: ≥ 70 µM
- TLNRNQPAA: ≥ 70 µM
- TVPSERGL: ≥ 70 µM
- IVSSYVCSGL: 12.7 µM
- TVSSFQDIL: 13.8 µM
- QTRSKAGLLV: ≥ 70 µM
- LAKSVFNSL: 17.1 µM
- RLTILGKDA: ≥ 70 µM
- AVPNGTLV: 10.6 µM
- RTLFQQMRDVL: ≥ 70 µM
- IAYERMCNIL: 7.91 µM
- WILWISFAIS: 27.2 µM
- AAFEDLRLL: 6.19 µM
- ATYQRTRA: ≥ 70 µM
- ATRRMIQL: ≥ 70 µM
- NALLKHRFEII: 5.36 µM
- AAFEDLRV: 18.4 µM
- QLVWMACHSAA: ≥ 70 µM
- AAFEDLRL: 46.9 µM
- TVQIIKLL: 51.8 µM
- NLPFDKTTIMA: ≥ 70 µM
- QARQMVQAMRA: 55.2 µM
- HANNSTDTV: 55 µM
- NVRGSGMRILV: 54.7 µM
- RASAGQISV: 11.5 µM
- NTTIEKEI: ≥ 70 µM
- QAIMDKNIIL: 13.4 µM
- SAAFEDLRL: 30.6 µM
- PAHKSQLV: ≥ 70 µM
- SAFDERRNKYL: ≥ 70 µM
- VATTHSWI: ≥ 70 µM
- FNPMIVELA: 12.6 µM
- RLNKRSYLI: 18.5 µM
- PAEMLANI: ≥ 70 µM
